Listing of entries alongside the reported laboratory extraction yield, Formic acid.
- method summary: Confirmatory laboratory extraction of a synthetic inhibitor/sugar mixture
- Assay type: physicochemical
- test settings: 5 mL synthetic solution + 5 mL solvent, 20° C., HPLC

| compound | laboratory extraction yield, Formic acid |
| --- | --- |
| CCCCCCCCCCO | 0.180^3 |
| CC(=O)c1ccccc1 | 0.234^3 |
| CC(C)CC(O)CC(C)C | 0.180^3 |
| CCCCCCC(=O)CC | 0.130^3 |
| CCCCCCC(C)O (stereo not shown) | 0.280^3 |
| O=Cc1ccccc1 | 0.200^3 |
| CCCC(=O)OCC [ethyl butyrate] | 0.160^3 |
| CCCCCCCCO | 0.239^3 |
| CCCCCCCCCCCCO | 0.020^3 |
| CCCCC(CC)CO (stereo not shown) | 0.213^3 |

###

- method summary: Confirmatory laboratory extraction of a synthetic inhibitor/sugar mixture
- Format: physicochemical
- test settings: 5 mL synthetic solution + 5 mL solvent, 20° C., HPLC
laboratory extraction yield, Lactic acid overview
readout label: laboratory extraction yield, Lactic acid

| molecule | result |
| --- | --- |
| CCCCCCCCO | 0.180^3 |
| CC(=O)c1ccccc1 | 0.137^3 |
| O=Cc1ccccc1 | 0.070^3 |
| CCCC(=O)OCC [ethyl butyrate] | 0.050^3 |
| CCCCCCCCCCCCO | 0.050^3 |
| CCCCC(CC)CO (stereo not shown) | 0.112^3 |
| CCCCCCC(C)O (stereo not shown) | 0.155^3 |
| CCCCCCCCCCO | 0.120^3 |
| CCCCCCC(=O)CC | 0.030^3 |
| CC(C)CC(O)CC(C)C | 0.070^3 |

###

- method summary: Confirmatory laboratory extraction of a synthetic inhibitor/sugar mixture
- Type: physicochemical
- test settings: 5 mL synthetic solution + 5 mL solvent, 20° C., HPLC
readout label: laboratory extraction yield, HMF

| compound | result |
| --- | --- |
| CCCCCCCCO | 0.360^3 |
| CC(=O)c1ccccc1 | 0.647^3 |
| CCCCCCCCCCCCO | 0.200^3 |
| CCCCCCC(=O)CC | 0.310^3 |
| CCCC(=O)OCC [ethyl butyrate] | 0.360^3 |
| CCCCC(CC)CO (stereo not shown) | 0.337^3 |
| CCCCCCC(C)O (stereo not shown) | 0.394^3 |
| CC(C)CC(O)CC(C)C | 0.220^3 |
| O=Cc1ccccc1 | 0.841^3 |
| CCCCCCCCCCO | 0.280^3 |

###

- method summary: Confirmatory laboratory extraction of a synthetic inhibitor/sugar mixture
- Type: physicochemical
- test settings: 5 mL synthetic solution + 5 mL solvent, 20° C., HPLC
readout label: laboratory extraction yield, Vanillin

| compound | readout label | result |
| --- | --- | --- |
| CCCCCCC(C)O (stereo not shown) [2-octanol] | laboratory extraction yield, Vanillin | 0.937^3 |
| CCCCCCCCCCCCO [1-dodecanol] | laboratory extraction yield, Vanillin | 0.903^3 |
| O=Cc1ccccc1 [benzaldehyde] | laboratory extraction yield, Vanillin | 1.392^3 |
| CC(=O)c1ccccc1 [Acetophenone] | laboratory extraction yield, Vanillin | 0.700^3 |
| CCCCCCCCO [1-octanol] | laboratory extraction yield, Vanillin | 0.931^3 |
| CCCCCCCCCCO [1-decanol] | laboratory extraction yield, Vanillin | 0.911^3 |
| CCCC(=O)OCC [ethyl butyrate] | laboratory extraction yield, Vanillin | 1.001^3 |
| CC(C)CC(O)CC(C)C [2,6-dimethyl-4-heptanol] | laboratory extraction yield, Vanillin | 0.851^3 |
| CCCCC(CC)CO (stereo not shown) [2-ethyl-1-hexanol] | laboratory extraction yield, Vanillin | 0.918^3 |
| CCCCCCC(=O)CC [3-nonanone] | laboratory extraction yield, Vanillin | 0.931^3 |

Entry source: patent US20130084614A1
